# Subject of test: Epidermal growth factor receptor [T790M,C797S,L858R] (UniProt P00533, C797S/L858R/T790M)
# Sequence (P00533 25-1210 T790M/C797S/L858R limits assumed): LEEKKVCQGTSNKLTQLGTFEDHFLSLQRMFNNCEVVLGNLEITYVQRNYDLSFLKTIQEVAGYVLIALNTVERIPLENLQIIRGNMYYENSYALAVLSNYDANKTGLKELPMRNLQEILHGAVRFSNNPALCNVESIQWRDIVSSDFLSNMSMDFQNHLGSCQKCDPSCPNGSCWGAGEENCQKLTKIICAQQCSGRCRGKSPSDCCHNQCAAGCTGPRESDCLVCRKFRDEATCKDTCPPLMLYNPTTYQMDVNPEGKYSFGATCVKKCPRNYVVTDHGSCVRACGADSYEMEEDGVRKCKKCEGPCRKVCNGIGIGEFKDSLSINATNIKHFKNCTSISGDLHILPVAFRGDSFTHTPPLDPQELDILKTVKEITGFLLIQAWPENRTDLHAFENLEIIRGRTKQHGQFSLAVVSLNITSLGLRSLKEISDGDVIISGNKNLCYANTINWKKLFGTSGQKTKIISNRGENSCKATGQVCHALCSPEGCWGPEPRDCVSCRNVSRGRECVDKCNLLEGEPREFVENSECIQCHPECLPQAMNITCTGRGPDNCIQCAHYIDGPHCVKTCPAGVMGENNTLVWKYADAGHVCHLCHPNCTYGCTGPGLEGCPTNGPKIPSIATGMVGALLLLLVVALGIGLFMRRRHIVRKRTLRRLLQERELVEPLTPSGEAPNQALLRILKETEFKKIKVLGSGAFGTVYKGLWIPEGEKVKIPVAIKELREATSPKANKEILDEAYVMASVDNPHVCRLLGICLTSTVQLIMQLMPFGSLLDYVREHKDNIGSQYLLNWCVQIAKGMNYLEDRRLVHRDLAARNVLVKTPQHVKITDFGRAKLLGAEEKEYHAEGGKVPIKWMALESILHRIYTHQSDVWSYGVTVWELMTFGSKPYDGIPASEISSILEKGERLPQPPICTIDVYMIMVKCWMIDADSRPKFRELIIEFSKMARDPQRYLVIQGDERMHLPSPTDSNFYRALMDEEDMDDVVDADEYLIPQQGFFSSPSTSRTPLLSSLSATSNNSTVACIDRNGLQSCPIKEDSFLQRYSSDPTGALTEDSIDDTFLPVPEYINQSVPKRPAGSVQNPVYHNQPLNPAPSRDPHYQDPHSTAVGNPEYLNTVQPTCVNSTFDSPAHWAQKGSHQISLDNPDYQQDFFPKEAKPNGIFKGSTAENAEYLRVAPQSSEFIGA
# Assay procedure: Inhibitory Activity for EGFR (L858R/T790M/C797S) Kinase
IC50 under 0.2 nM gets 1 (yes), anything at or over 0.2 nM gets 0 (no).

Smiles text: Cc1cc2cc(n1)-c1cnn(C)c1OCCC[C@@H](C1CC1)CN1/C(=N/C2=O)Nc2ccc(N[C@H]3CC[C@@H](N(C)C)CC3)cc21
Label value: 0 (no)

**Q:** In the record for Cc1cc2cc(n1)-c1cnn(C)c1OCCC[C@@H](C1CC1)CN1/C(=N/C2=O)Nc2cc(NCCCN3CCCC3)ccc21 , is IC50 less than 0.2 nM?
**A:** 1 (yes)

**Q:** In the record for Cc1cc2cc(n1)-c1cnn(C)c1OCCC[C@@H](C1CC1)CN1/C(=N/C2=O)Nc2ccc(N[C@H]3CC[C@H](N(C)C)C3)cc21 , is IC50 less than 0.2 nM?
**A:** 0 (no)

**Q:** In the record for [2H]C([2H])([2H])N(C[C@H](C)Nc1ccc2c(c1)N/C1=N/C(=O)c3cc(C)nc(c3)-c3cnn(C)c3OCCC[C@@H](C3CC3)CN12)C([2H])([2H])[2H] , is IC50 less than 0.2 nM?
**A:** 1 (yes)

**Q:** In the record for Cc1cc2cc(n1)-c1cnn(C)c1OCCC[C@@H](C1CC1)CN1/C(=N/C2=O)Nc2cc(NC3CN(C)C3)ccc21 , is IC50 less than 0.2 nM?
**A:** 1 (yes)

**Q:** In the record for Cc1cc2cc(n1)-c1cnn(C)c1OCCC[C@@H](C1CC1)CN1/C(=N/C2=O)Nc2cc(N[C@H]3CC[C@H](O)CC3)ccc21 , is IC50 less than 0.2 nM?
**A:** 0 (no)

This collection of values is drawn from BindingDB's records for patent US20250034165.
